Ref: ChEMBL document CHEMBL4725434

experiment: Volume of distribution at steady state in rat 3 mg/kg, iv; type: ADME, organism-based; conditions: in vivo, read-out: Vdss
measured-attribute: Vd
Returns: string containing the number followed by the unit.

Asked: Annotate the molecule C=CC(=O)N[C@H]1COC[C@H]1Nc1ncc2cc(-c3c(Cl)c(OC)cc(OC)c3Cl)c(=O)n(C)c2n1 with its measured Vd.
Given back: 0.3 L/kg

* * *

assay: AUC in rat at 10 mg/kg, po; assay type: ADME, organism-based; parameters: dose 10 mg/kg; details: in vivo
measured-attribute: AUC
Could you give the number and then its unit, please?

Asked: Identify AUC associated with the compound C=CC(=O)N[C@H]1COC[C@H]1Nc1ncc2cc(-c3c(Cl)c(OC)cc(OC)c3Cl)c(=O)n(C)c2n1
Given back: 2230 ng·h/mL

* * *

test: AUC in mouse at 3 mg/kg, iv; assay type: ADME, organism-based; design: dose 3 mg/kg; conditions: in vivo
measured-attribute: AUC (ng·h/mL)
One number for each entry, in ng·h/mL.

Asked: Please report the measured AUC for C=CC(=O)N[C@H]1COC[C@H]1Nc1ncc2cc(-c3c(Cl)c(OC)cc(OC)c3Cl)c(=O)n(C)c2n1
Given back: 2910

* * *

test: Clearance in rat at 3 mg/kg, iv; assay type: ADME, organism-based; conditions: in vivo
measured-attribute: clearance (mL/min/kg)
Answers are plain numbers, in mL/min/kg.

Asked: Tell me clearance reported for C=CC(=O)N[C@H]1COC[C@H]1Nc1ncc2cc(-c3c(Cl)c(OC)cc(OC)c3Cl)c(=O)n(C)c2n1
Given back: 9

* * *

test: Oral bioavailability in rat 10 mg/kg; assay type: ADME, organism-based; conditions: in vivo
measured-attribute: bioavailability (%)
Answers are plain numbers, in %.

Asked: Fill in reported bioavailability for this entry: C=CC(=O)N[C@H]1COC[C@H]1Nc1ncc2cc(-c3c(Cl)c(OC)cc(OC)c3Cl)c(=O)n(C)c2n1
Given back: 12

* * *

assay: Cmax in mouse at 10 mg/kg, po; format: ADME, organism-based; parameters: route oral, dose 10 mg/kg; details: in vivo
measured-attribute: Cmax (ng/mL)
Answers are plain numbers, in ng/mL.

Asked: Output Cmax of C=CC(=O)N[C@H]1COC[C@H]1Nc1ncc2cc(-c3c(Cl)c(OC)cc(OC)c3Cl)c(=O)n(C)c2n1
Given back: 423

* * *

experiment: AUC in cynomolgus monkey at 10 mg/kg, po; type: ADME, organism-based, Macaca fascicularis; design: dose 10 mg/kg; conditions: in vivo
measured-attribute: AUC (ng·h/mL)
Give bare numbers, in ng·h/mL.

Asked: Return AUC (reported value) for this molecule: C=CC(=O)N[C@H]1COC[C@H]1Nc1ncc2cc(-c3c(Cl)c(OC)cc(OC)c3Cl)c(=O)n(C)c2n1
Given back: 5660

* * *

assay: AUC in rat at 3 mg/kg, iv; format: ADME, organism-based; design: dose 3 mg/kg; settings: in vivo
measured-attribute: AUC (ng·h/mL)
Give bare numbers, in ng·h/mL.

Asked: Determine from records and report AUC for C=CC(=O)N[C@H]1COC[C@H]1Nc1ncc2cc(-c3c(Cl)c(OC)cc(OC)c3Cl)c(=O)n(C)c2n1
Given back: 5610

* * *

test: Oral bioavailability in mouse at 10 mg/kg; type: ADME, organism-based; settings: in vivo
measured-attribute: bioavailability

Asked: For the compound C=CC(=O)N[C@H]1COC[C@H]1Nc1ncc2cc(-c3c(Cl)c(OC)cc(OC)c3Cl)c(=O)n(C)c2n1 , report bioavailability.
Given back: 20%
